FYI, the data here is from paper PMC2566858.

Protein target, amino acids: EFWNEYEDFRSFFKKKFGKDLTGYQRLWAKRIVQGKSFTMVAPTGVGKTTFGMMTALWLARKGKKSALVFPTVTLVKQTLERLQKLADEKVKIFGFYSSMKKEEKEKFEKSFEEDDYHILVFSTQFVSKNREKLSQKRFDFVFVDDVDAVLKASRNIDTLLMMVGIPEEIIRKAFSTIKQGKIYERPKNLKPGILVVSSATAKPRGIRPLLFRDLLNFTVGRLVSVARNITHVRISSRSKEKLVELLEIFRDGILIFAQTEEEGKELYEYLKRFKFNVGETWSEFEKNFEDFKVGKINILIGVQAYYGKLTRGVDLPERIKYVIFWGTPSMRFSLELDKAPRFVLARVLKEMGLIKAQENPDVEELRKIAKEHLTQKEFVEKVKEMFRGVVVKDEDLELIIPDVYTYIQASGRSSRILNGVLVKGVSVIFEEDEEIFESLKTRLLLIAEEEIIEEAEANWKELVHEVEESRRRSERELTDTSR
ASSAY READOUT: Kd

>>> meas_value("Nc1ncnc2c1ncn2[C@@H]1O[C@H](COP(=O)(O)O)[C@@H](O)[C@H]1O [AMP]")
"1.6 mM"

###

- MEASURED ON: rGyr_hel (Thermotoga maritima, UniProt O51934, K106Q)
- Sequence (O51934 59-541 K106Q): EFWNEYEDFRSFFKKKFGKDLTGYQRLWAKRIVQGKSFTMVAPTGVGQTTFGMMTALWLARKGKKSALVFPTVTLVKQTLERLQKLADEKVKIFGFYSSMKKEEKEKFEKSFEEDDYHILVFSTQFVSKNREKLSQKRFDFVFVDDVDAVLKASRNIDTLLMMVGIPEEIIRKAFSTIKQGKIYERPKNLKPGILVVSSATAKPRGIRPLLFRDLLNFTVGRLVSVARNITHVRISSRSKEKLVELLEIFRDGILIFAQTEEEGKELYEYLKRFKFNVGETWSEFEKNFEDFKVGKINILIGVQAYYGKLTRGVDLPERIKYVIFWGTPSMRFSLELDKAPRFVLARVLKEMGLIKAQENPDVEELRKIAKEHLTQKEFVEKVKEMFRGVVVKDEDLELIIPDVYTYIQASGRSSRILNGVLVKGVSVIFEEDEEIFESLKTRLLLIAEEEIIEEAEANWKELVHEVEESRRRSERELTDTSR
- ASSAY METHOD TEXT: biochemical
ASSAY READOUT: Kd (µM)

>>> meas_value("Nc1ncnc2c1ncn2[C@@H]1O[C@H](COP(=O)(O)OP(=O)(O)O)[C@@H](O)[C@H]1O [ADP]")
150
>>> meas_value("Nc1ncnc2c1ncn2[C@@H]1O[C@H](COP(=O)(O)OP(=O)(O)OP(=O)(O)O)[C@@H](O)[C@H]1O [ATP]")
570
